Reference source for all entries: patent US20140161799A1

- studyTarget: T1, human CD47 (human, UniProt Q08722 19-323)
- T1 construct: whole, on cells; also called CD47 on human red blood cells
- T1 sequence (Q08722 19-323): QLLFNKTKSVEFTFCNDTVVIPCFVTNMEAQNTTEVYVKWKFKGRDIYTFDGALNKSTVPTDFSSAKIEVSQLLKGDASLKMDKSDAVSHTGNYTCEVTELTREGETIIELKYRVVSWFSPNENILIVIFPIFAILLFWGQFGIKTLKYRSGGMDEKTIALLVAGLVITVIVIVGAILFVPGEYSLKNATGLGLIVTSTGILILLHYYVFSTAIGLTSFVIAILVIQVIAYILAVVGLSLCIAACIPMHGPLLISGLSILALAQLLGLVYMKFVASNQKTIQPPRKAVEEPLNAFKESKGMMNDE
- assayText: flow cytometry on RBCs, antibody 10 ng/ml
readoutName: mean fluorescence relative to chimeric antibody

// Input: pVxK7b-037-hum19-LC/pVxK7b-037-hum19-HC (antibody, human IgG1, V domains shown, Full-length human IgG1/kappa in CHO supernatant; Variable entries end within framework 4 (...FGQG / ...WGQG); also called Clone 19) VH: EVQLVQSGAEVKKPGESLRISCKGSGYTFTNYYVFWIRQSPSRGLEWLGDINPVNGDTNFNEKFKNRVTITADKSTSTAYMELSSLRSEDTAVYYCARGGYTMDYWGQG VL: DVVMTQSPLSLPVTLGQPASISCRSSQSLVHSNGNTYLHWYQQKPGKAPKLLIYKVSYRFSGVPDRFSGSGSGTDFTLKISRVEAEDVGVYYCSQNTHVPRTFGQG . Output its mean fluorescence relative to chimeric antibody only.
0.7 fold of chimera

In one line, give reported mean fluorescence relative to chimeric antibody of the entry pVxK7b-037-hum15-LC/pVxK7b-037-hum15-HC (antibody, human IgG1, V domains shown, Full-length human IgG1/kappa in CHO supernatant; Variable entries end within framework 4 (...FGQG / ...WGQG); also called Clone 15) VH: QVQLQESGPGLVKPSQTLSLTCTVSGYTFTNYYVFWVRQARGQRLEWIGDINPVNGDTNFNEKFKNRLTISKDTSKNQVVLTMTNMDPVDTATYYCARGGYTMDYWGQG VL: AIQLTQSPSSLSASVGDRVTITCRSSQSLVHSNGNTYLHWYQQKPGQAPRLLIYKVSYRFSGVPSRFSGSGSGTEFTLTISSLQPDDFATYYCSQNTHVPRTFGQG .
1 fold of chimera

Continuing:
Tell us which mean fluorescence relative to chimeric antibody value is on record for pVxK7b-037-hum11-LC/pVxK7b-037-hum11-HC (antibody, human IgG1, V domains shown, Full-length human IgG1/kappa in CHO supernatant; Variable entries end within framework 4 (...FGQG / ...WGQG); also called Clone 11) VH: QVQLQESGPGLVKPGATVKISCKVSGYTFTNYYVFWVRQARGQRLEWIGDINPVNGDTNFNEKFKNRVTITADKSTSTAYMELSSLRSEDTAVYYCARGGYTMDYWGQG VL: EIVLTQSPATLSVSPGERATLSCRSSQSLVHSNGNTYLHWYQQKPGQAPRLLIYKVSYRFSGVPSRFSGSGSGTDFTFTISSLEAEDAATYYCSQNTHVPRTFGQG
0.8 fold of chimera
